Reported cAMP EC50 values for the following binders.
- assayedSystem: T1, rat GLP-1 receptor (rat, UniProt P32301 22-463)
- T1 sequence (looked up): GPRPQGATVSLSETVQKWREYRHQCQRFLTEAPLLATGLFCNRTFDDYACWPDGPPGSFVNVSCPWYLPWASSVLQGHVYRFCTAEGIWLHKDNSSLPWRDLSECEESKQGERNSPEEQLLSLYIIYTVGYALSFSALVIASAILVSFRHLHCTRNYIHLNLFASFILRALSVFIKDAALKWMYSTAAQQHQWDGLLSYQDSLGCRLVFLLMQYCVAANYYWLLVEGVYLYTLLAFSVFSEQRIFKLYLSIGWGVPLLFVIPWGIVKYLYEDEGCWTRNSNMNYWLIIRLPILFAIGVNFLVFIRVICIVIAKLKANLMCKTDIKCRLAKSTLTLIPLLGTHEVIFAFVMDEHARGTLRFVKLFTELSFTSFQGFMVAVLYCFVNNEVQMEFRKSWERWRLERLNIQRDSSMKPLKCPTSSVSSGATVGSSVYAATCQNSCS
- experimentNotes: cell-based or functional assay
Just the number in nM, nothing appended.

Observe how each entry below is paired with its result.
{"columns": ["binder", "experimentalResult"],
 "data": [
  ["IP370 (Fc fusion) YSEGTFTSLYSKLKEEEAVRLFIEWLLAGGGGGGSGGGGSGGGGSGGGGSATHTCPPC", 0.35],
  ["IP328 (Fc fusion) YSEGTFTSDYSKLLEEEAVRLFIEWLLAGGGGGGGSGGGGSGGGGSGGGGSGGGGSGGGGSGGGGSGGGGSA", 0.21]
]}

Continue with the next binder.
Task: Tell me its cAMP EC50 given IP228 (Fc fusion) YSEGTFTSDYSKLLEEEAVRLFIEWLKNGGAAAGGSGSTASSGSGSATGGGGAATHTCPPCPAPEF as the entry.
Result: 0.096
